Source: ChEMBL document CHEMBL1949639

tested on: Rattus norvegicus; assay: Antihypertensive activity in Wistar rat assessed as decrease of L-NAME-induced systolic arterial pressure at 20 mg/kg, po administered with drinking water qd for 3 days by sphygmomanometer; format: functional, Artery; settings: dose 30 mg/kg, in the assay text read “30 mg/kg” for “20 mg/kg”
PARAMETER MEASURED: Activity
The reply should consist of the numeric value with the unit placed after it.

Guide cases for Activity, answers given:
CCCCc1nc(Cl)c(C(=O)OCCCc2ccc(O)c(O)c2)n1Cc1ccc(-c2ccccc2-c2nn[nH]n2)cc1
9 mmHg
CCCCc1nc(C(=O)OCCCc2ccc(O)c(O)c2)c(Cl)n1Cc1ccc(-c2ccccc2-c2nn[nH]n2)cc1
14 mmHg
CCCCc1nc(Cl)c(CNC(=O)CCc2ccc(O)c(O)c2)n1Cc1ccc(-c2ccccc2-c2nn[nH]n2)cc1
13 mmHg
CCCCc1nc(Cl)c(COC(=O)CCc2ccc(O)c(O)c2)n1Cc1ccc(-c2ccccc2-c2nnn[nH]2)cc1
29 mmHg
CCCCc1nc(Cl)c(CO)n1Cc1ccc(-c2ccccc2-c2nnn[nH]2)cc1
13 mmHg

Tested system Rattus norvegicus; Activity recorded for CCCCc1nc(Cl)c(C(=O)NCCCc2ccc(O)c(O)c2)n1Cc1ccc(-c2ccccc2-c2nn[nH]n2)cc1 was 1 mmHg
